The reported measurements were obtained from ChEMBL document CHEMBL1150387.

target: Receptor-type tyrosine-protein kinase FLT3 (Homo sapiens) (UniProt P36888); experiment: Inhibition of FLT3 at 10 uM by HTRF assay relative to control
Sequence (P36888 whole entry): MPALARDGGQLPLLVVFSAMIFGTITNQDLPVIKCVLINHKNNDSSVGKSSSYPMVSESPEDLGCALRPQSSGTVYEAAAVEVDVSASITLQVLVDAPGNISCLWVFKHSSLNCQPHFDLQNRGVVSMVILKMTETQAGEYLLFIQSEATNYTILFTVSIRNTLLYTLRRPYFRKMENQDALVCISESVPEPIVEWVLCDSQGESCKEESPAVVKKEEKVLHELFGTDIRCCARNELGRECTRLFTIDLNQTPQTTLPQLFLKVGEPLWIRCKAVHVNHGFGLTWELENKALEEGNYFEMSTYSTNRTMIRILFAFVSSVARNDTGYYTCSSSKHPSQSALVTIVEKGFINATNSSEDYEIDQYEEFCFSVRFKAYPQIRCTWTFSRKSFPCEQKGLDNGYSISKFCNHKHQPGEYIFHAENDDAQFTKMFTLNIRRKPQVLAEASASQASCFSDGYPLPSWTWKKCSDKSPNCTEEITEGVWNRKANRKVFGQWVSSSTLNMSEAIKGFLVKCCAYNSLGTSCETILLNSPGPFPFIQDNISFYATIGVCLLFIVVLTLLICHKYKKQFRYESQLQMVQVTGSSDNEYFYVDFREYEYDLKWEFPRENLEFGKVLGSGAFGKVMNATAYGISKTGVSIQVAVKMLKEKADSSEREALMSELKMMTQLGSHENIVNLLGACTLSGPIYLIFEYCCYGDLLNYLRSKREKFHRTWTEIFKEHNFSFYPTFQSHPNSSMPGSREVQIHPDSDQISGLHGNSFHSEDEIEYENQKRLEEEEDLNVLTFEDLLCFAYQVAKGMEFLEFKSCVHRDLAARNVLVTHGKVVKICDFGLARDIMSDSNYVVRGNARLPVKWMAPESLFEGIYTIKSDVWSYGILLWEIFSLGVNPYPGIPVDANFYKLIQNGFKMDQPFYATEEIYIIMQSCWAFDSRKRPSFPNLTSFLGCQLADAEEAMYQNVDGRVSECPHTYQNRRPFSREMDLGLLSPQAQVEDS
Reported inhibition by item:
Use % as the unit, but write only the number.

Chemical structure	Unit of measure	inhibition
O=C(NCc1ccncc1)c1cccc(Nc2cc(Nc3cccc(Br)c3)ncn2)c1	%	35
Cc1cccc(Oc2ccnc(N3CCN(C(=O)c4c(C)noc4C)CC3)n2)c1	%	0
Cc1cccc(Nc2nccc3c2CN(C(=O)c2cc(C)n(C)c2C)CC3)c1	%	0
CN(C)CC(C)(C)CNC(=O)[C@@H]1CCCN1c1nccc(Nc2ccccc2)n1	%	0

Find inhibition (Receptor-type tyrosine-protein kinase FLT3 (Homo sapiens) (UniProt P36888)) for the entry `Cc1cccc(N(C)c2cc(Nc3cccc(C(=O)N(CC(C)C)CC(C)C)c3)ncn2)c1` 0

---

molecular target: 3-phosphoinositide-dependent protein kinase 1 (Homo sapiens); assay: Inhibition of PDK1 at 10 uM by HTRF assay relative to control
Quantity measured: inhibition (%)
Use % as the unit, but write only the number.

Compound	System	Unit of measure	inhibition
Cc1cccc(N(C)c2cc(Nc3cccc(C(=O)N(CC(C)C)CC(C)C)c3)ncn2)c1	3-phosphoinositide-dependent protein kinase 1 (Homo sapiens)	%	0

If you can, please state the reported inhibition value of `Cc1cccc(Nc2nccc3c2CN(C(=O)c2cc(C)n(C)c2C)CC3)c1` . 0

Then `Cc1cccc(Oc2ccnc(N3CCC[C@H]3C(=O)NCc3cccnc3)n2)c1` ? 0

Then Cc1cccc(N(C)c2cc(Nc3cccc(C(=O)N4CCCC5CCCCC54)c3)ncn2)c1 (centres undefined) ? 0

Then `Cc1cccc(N(C)c2cc(Nc3ccc(CC(=O)Nc4ccc5ncsc5c4)cc3)ncn2)c1` ? 1

Then `Cc1cccc(CN2CCN(c3cc(N(C)c4cccc(C)c4)ncn3)CC2)c1` ? 3

Then `Nc1nc(Nc2ccc3ncsc3c2)cc(N2CCC[C@H]2C(=O)N[C@@H](CO)c2ccccc2)n1` ? 2

Then `Cc1cccc(N(C)c2cc(N3CCN(CC(=O)Nc4nc(-c5ccccc5)cs4)CC3)ncn2)c1` ? 5

Then `O=C(NC[C@@H]1CCCO1)c1cccc(Nc2nccc(Nc3ccc4ncsc4c3)n2)c1` ? 3

---

assay: Inhibition of IRK at 10 uM by HTRF assay relative to control
Quantity measured: inhibition

Here are 5 molecules together with their reported answers.
Molecule	inhibition
CN(C)CC(C)(C)CNC(=O)C1CCN(c2cc(N3CCOCC3)nc(N)n2)CC1	0%
COC[C@@H]1CCCN1C(=O)[C@@H]1CCCN1c1nccc(Nc2ccccc2)n1	0%
COc1cccc(Nc2cc(Nc3cccc(C(=O)NCCCn4ccnc4)c3)nc(N)n2)c1	0%
O=C(c1nc(SCc2ccc(Cl)cc2)n2ccccc12)N1CCN(c2ncnc3c2CN(Cc2ccccc2)CC3)CC1	0%
CN(C)CC(C)(C)CNC(=O)c1cccc(Nc2nccc(Nc3ccc4ncsc4c3)n2)c1	87%

If you can, please state the reported inhibition value of COC[C@@H]1CCCN1C(=O)C1CCCN1c1cc(Nc2cccc(Br)c2)ncn1 (some centres undefined) . 0%

Then Cc1cccc(Nc2cc(Nc3cccc(C(=O)N(CC(C)O)CC(C)O)c3)ncn2)c1 (centres undefined) ? 0%

Then `CC(=O)CCCCC(=O)N1CCN(c2nccc(Oc3cccc(C)c3)n2)CC1` ? 0%

Then `O=C(NCCc1ccc(O)cc1)c1cccc(Nc2nccc(Nc3ccc4ncsc4c3)n2)c1` ? 1%

---

target: Protein kinase C alpha type (Homo sapiens) (UniProt P17252); experiment: Inhibition of PKCalpha at 10 uM by HTRF assay relative to control
Reported inhibition by item:

Here are 5 compounds together with their reported answers.
Chemical structure	inhibition
Nc1nc(N2CCOCC2)cc(N2CCC(C(=O)NCCc3ccc(O)cc3)CC2)n1	0%
COc1cccc(Nc2cc(Nc3cccc(C(=O)N(C)CCc4ccccn4)c3)nc(N)n2)c1	0%
CN(C)CC(C)(C)CNC(=O)[C@@H]1CCCN1c1nccc(Nc2ccccc2)n1	0%
CN(CCc1ccccn1)C(=O)[C@@H]1CCCN1c1nccc(Nc2ccccc2)n1	1%
COC[C@@H]1CCCN1C(=O)[C@@H]1CCCN1c1cc(Nc2cccc(OC)c2)nc(N)n1	5%

# input for lookup
If you can, please state the reported inhibition value of `O=C(C1CCN(c2nccc(Nc3ccccc3)n2)CC1)N1CC[C@@H](O)C1` . 0%

---

target: Fibroblast growth factor receptor 1 (Homo sapiens) (UniProt P11362); test: Inhibition of FGFR1 at 10 uM by HTRF assay relative to control
Sequence (P11362 22-822 limits assumed): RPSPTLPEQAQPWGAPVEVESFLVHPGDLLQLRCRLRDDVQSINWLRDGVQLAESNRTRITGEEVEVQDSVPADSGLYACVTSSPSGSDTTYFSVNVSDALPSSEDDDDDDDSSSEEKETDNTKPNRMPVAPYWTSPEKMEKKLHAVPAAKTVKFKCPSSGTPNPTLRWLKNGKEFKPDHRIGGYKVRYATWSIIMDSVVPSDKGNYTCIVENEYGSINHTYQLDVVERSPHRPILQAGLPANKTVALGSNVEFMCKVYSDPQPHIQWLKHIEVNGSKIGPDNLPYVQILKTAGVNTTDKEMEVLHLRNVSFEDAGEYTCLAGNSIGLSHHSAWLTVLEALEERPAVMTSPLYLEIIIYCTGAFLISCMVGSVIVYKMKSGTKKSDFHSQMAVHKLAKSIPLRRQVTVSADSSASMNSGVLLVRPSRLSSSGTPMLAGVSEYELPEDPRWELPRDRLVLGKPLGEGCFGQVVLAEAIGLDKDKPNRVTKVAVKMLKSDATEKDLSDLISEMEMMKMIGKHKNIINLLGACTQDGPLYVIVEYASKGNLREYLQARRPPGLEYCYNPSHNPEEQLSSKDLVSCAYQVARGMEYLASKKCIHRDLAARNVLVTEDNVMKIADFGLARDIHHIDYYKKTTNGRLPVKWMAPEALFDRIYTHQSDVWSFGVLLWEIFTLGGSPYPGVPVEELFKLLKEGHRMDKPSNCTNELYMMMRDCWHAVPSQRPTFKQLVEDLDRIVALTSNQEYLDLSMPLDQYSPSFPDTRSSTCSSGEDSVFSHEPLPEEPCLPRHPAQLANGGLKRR
Quantity measured: inhibition (%)
Use % as the unit, but write only the number.

Molecule	Unit of measure	Val
Cc1ccc(CN2CCN(c3nccc(C(C#N)c4ccccn4)n3)CC2)cc1 (stereo not given)	%	5
O=C(c1nc(SCc2ccc(Cl)cc2)n2ccccc12)N1CCN(c2cc(Nc3cccc(Br)c3)ncn2)CC1	%	14
O=C(NC[C@@H]1CCCO1)c1cccc(Nc2nccc(Nc3ccc4ncsc4c3)n2)c1	%	95
CC(=O)N1CCN(C(=O)c2cccc(Nc3cc(N(C)c4cccc(C)c4)ncn3)c2)CC1	%	21

# input for lookup
If you can, please state the reported inhibition value of `COC[C@@H]1CCCN1C(=O)[C@@H]1CCCN1c1cc(Nc2cccc(OC)c2)nc(N)n1` . 0

---

target: Mitogen-activated protein kinase 14 (Homo sapiens); assay: Inhibition of p38alpha at 10 uM by HTRF assay relative to control
Quantity measured: inhibition

Here are 8 compounds together with their reported answers.
Compound	System	inhibition
COc1cccc(Nc2cc(N3CCC[C@H]3C(=O)NCCc3ccc(O)cc3)nc(N)n2)c1	Mitogen-activated protein kinase 14 (Homo sapiens)	8%
O=C(NCc1ccncc1)c1cccc(Nc2cc(Nc3cccc(Br)c3)ncn2)c1	Mitogen-activated protein kinase 14 (Homo sapiens)	37%
Cc1cccc(Nc2nccc(Nc3cccc(C(=O)NCc4ccc(N(C)C)cc4)c3)n2)c1	Mitogen-activated protein kinase 14 (Homo sapiens)	0%
O=C(NCCc1ccc(O)cc1)c1cccc(Nc2nccc(Nc3ccc4ncsc4c3)n2)c1	Mitogen-activated protein kinase 14 (Homo sapiens)	9%
Nc1nc(Nc2ccc3ncsc3c2)cc(N2CCC[C@H]2C(=O)NCCc2cccc(I)c2)n1	Mitogen-activated protein kinase 14 (Homo sapiens)	10%
Cc1cccc(N(C)c2cc(Nc3cccc(C(=O)N(CC(C)C)CC(C)C)c3)ncn2)c1	Mitogen-activated protein kinase 14 (Homo sapiens)	0%
Nc1nc(Nc2ccccc2)cc(N2CCC(C(=O)NCCc3ccccn3)CC2)n1	Mitogen-activated protein kinase 14 (Homo sapiens)	12%
O=C(NC1Cc2ccccc2C1)c1cccc(Nc2ccnc(N3CCN(c4ccccc4)CC3)n2)c1	Mitogen-activated protein kinase 14 (Homo sapiens)	1%

If you can, please state the reported inhibition value of `CC(=O)N1CCN(C(=O)c2cccc(Nc3cc(N(C)c4cccc(C)c4)ncn3)c2)CC1` . 4%

Then `Cc1cccc(N(C)c2cc(N3CCN(CC(=O)Nc4nc(-c5ccccc5)cs4)CC3)ncn2)c1` ? 0%

Then `COC[C@@H]1CCCN1C(=O)[C@@H]1CCCN1c1nccc(Nc2ccccc2)n1` ? 0%

Then `COc1ccc(-c2noc(CN3CCN(c4cc(Nc5cccc(O)c5)ncn4)CC3)n2)cc1` ? 1%

Then `Cc1cccc(N(C)c2cc(Nc3cccc(C(=O)N(C)CCc4ccccn4)c3)ncn2)c1` ? 5%

Then `COc1cccc(Nc2cc(N3CCC[C@H]3C(=O)NCCN3CCCCC3)nc(N)n2)c1` ? 0%

Then `Cc1cccc(CN2CCN(c3cc(N(C)c4cccc(C)c4)ncn3)CC2)c1` ? 1%

Then Cc1cccc(Nc2cc(Nc3cccc(C(=O)N(CC(C)O)CC(C)O)c3)ncn2)c1 (centres undefined) ? 11%

Then `CC(=O)CCCCC(=O)N1CCN(c2nccc(Oc3cccc(C)c3)n2)CC1` ? 10%

---

Reported inhibition by item:
biological target: Mitogen-activated protein kinase 9 (Homo sapiens) (UniProt P45984); test: Inhibition of JNK2 at 10 uM by HTRF assay relative to control
Sequence (P45984 whole entry, looked up): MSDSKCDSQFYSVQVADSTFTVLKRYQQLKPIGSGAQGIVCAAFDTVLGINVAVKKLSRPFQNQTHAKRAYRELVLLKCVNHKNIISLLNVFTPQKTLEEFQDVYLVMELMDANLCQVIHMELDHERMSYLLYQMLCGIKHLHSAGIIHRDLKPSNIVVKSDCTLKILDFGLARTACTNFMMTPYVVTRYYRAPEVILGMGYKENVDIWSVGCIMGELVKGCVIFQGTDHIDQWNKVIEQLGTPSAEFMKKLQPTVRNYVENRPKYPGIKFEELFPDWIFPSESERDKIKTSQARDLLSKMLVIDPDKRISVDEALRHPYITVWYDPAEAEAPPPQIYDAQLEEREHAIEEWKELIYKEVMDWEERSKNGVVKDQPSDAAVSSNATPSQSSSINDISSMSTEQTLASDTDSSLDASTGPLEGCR
Use % as the unit, but write only the number.

Here are 3 molecules together with their reported answers.
Molecule	System	Unit of measure	Val
Cc1cccc(Nc2nccc(Nc3cccc(C(=O)N(C)CCc4ccccn4)c3)n2)c1	Mitogen-activated protein kinase 9 (Homo sapiens) (UniProt P45984)	%	37
Cc1cccc(Oc2ccnc(N3CCN(CC(=O)Nc4cccc5c4CCCC5)CC3)n2)c1	Mitogen-activated protein kinase 9 (Homo sapiens) (UniProt P45984)	%	2
COc1cccc(Nc2cc(Nc3cccc(C(=O)N(C)CCc4ccccn4)c3)nc(N)n2)c1	Mitogen-activated protein kinase 9 (Homo sapiens) (UniProt P45984)	%	9

If you can, please state the reported inhibition value of `Cc1cccc(N(C)c2cc(Nc3cccc(C(=O)N(CC(C)C)CC(C)C)c3)ncn2)c1` . 3

Then COC[C@@H]1CCCN1C(=O)C1CCCN1c1cc(Nc2cccc(Br)c2)ncn1 (stereo partly drawn) ? 0

Then `Cc1cccc(Oc2ccnc(N3CCC[C@H]3C(=O)NCCCn3ccnc3)n2)c1` ? 7

Then `O=C(NCCc1ccc(O)cc1)c1cccc(Nc2nccc(Nc3ccc4ncsc4c3)n2)c1` ? 39

Then `Cc1cccc(N(C)c2cc(Nc3cccc(C(=O)NCc4ccc(N(C)C)cc4)c3)ncn2)c1` ? 4

Then `O=C(CN1CCN(c2ncnc3c2CN(Cc2ccccc2)CC3)CC1)Nc1cc(F)ccc1F` ? 1

Then `COc1cccc(Nc2cc(Nc3cccc(C(=O)NCCCn4ccnc4)c3)nc(N)n2)c1` ? 32

Then `CN(C)CC(C)(C)CNC(=O)[C@@H]1CCCN1c1nccc(Nc2ccccc2)n1` ? 2

Then `CN(C)CC(C)(C)CNC(=O)c1cccc(Nc2nccc(Nc3ccc4ncsc4c3)n2)c1` ? 88
